Test system: MS2 coat protein
assaySummary: apparent Kd, MS2 coat protein; higher = weaker binding; RNA-MaP array
conditionDetails: ligand present: tryptophan; designed as: ON switch for tryptophan
measuredQuantity: apparent Kd (nM)
All answers are understood in nM, so give the number only.

In: Data request, read-out apparent Kd, for `AGGGACAUGAGGAUCACCCAUGUUGAAACUCGAGGACCGGUACGGCCGCCACUCGUAUAAUCGAUGUCCAUUUGGGAUUCCGGCU`
Out: 24.2

In: Data request, read-out apparent Kd, for `UGUCCGUGAUCGGCCGCCACUCAACAAACCUGUGGAAACUGACAUGAGGAUCACCCAUGUUCUUGGAGGACCGGGAUUGCUUCGA`
Out: 17.3

In: Data request, read-out apparent Kd, for `AUUAACAUGAGGAUCACCCAUGUGGCCCACCGAGGACCGGUACGGCCGCCACUCGUCGGAAAGGCUAAAUUUAUGAAGUCCAAAA`
Out: 16.1

In: Data request, read-out apparent Kd, for `GGCUGCGAUGGCGGAAAUUAUUUACAUAGGCGAGGACCGGUACGGCCGCCACUCGAACGUACAUGAGGAUCACCCAUGUGAUAAU`
Out: 26.5

In: Data request, read-out apparent Kd, for `CCUCACAUGAGGAUCACCCAUGUCUUUACACGAGGACCGGUACGGCCGCCACUCGUUCACAAAACAACCAGAAGUGAUGCCUACA`
Out: 169

* * *

Tested on: MS2 coat protein
assaySummary: apparent Kd, MS2 coat protein; higher = weaker binding; RNA-MaP array; FMN 200 µM where present
conditionDetails: designed as: ON switch for flavin mononucleotide; no ligand
measuredQuantity: apparent Kd
Reply with the number and its unit after it.

In: Data request, read-out apparent Kd, for `UUGGACGUCGUAGGAUAUGUAGGAUAUUCCUACAUGAGGAUCACCCAUGUUGACACGGAAGAAGGACAGAAGGACGAUGUCCAU`
Out: 11.6 nM

In: Data request, read-out apparent Kd, for `CCAUAGUACAAUUUAGAUCUACAUGAGGAUCACCCAUGUACUGAGGAUAUCAGCUCGAAUAGAGCUGAGAAGGCAGAAUUAAUU`
Out: 132 nM

In: Data request, read-out apparent Kd, for `CAUCAUGCGUCUAAGGAUAUGUCUCACAAGACAUGAGGAUCACCCAUGUAGAAUAAAUAAAUGAUGCAGAAGGUGGAGCGCAUGC`
Out: 343 nM

In: Data request, read-out apparent Kd, for `AUGGAUACCACAGGAUAUAGCUAGCAUAGCUAGCUAGAAGGGUGGUCCAUCCUAUGUAAAUACAUGAGGAUCACCCAUGUGUCC`
Out: 403 nM

In: Data request, read-out apparent Kd, for `UUAUAUAAGGUGUAGCUAGACAUGCAAGAAGGGUGAAGAACAUGAGGAUCACCCAUGUAGACGGUACAGGAUAUUGAUUGACGA`
Out: 340 nM

In: Data request, read-out apparent Kd, for `AUUAUUUACAUAGGAUAUUGUUACAUGAGGAUCACCCAUGUUAUUUGGGAAUUAGGAAUAUUUUACAAGAAGGAUGUUGUUACA`
Out: 87.4 nM

In: Data request, read-out apparent Kd, for `UGGUACAUGGGAGGAUAUCAUGUGAGAACAUGAGGAUCACCCAUGUCGAUGGAGACAUCGGAGAUUGAGAAGGCCCAUGUACCU`
Out: 1210 nM

* * *

Tested on: MS2 coat protein
assaySummary: apparent Kd, MS2 coat protein; higher = weaker binding; RNA-MaP array
conditionDetails: designed as: OFF switch for flavin mononucleotide; no ligand
Would you mind labelling by apparent Kd? At or over 20 nM is met, under is not met.

In: Could you tell me if the measured apparent Kd of `CCUAACUGAGGAUAUGACAACUGGCACAUGAGGAUCACCCAUGUAGACUCAUUCGAGUUAUCAGAAGGCAGAAUAU` reaches 20 nM or more?
Out: not met

In: Could you tell me if the measured apparent Kd of `CAAGGGAAAGUCAGGAUAUGCACAACCGACCGUUUGCAGAAGGGACAUGAGGAUCACCCAUGUGUGGAACUGUU` reaches 20 nM or more?
Out: not met

In: Could you tell me if the measured apparent Kd of `GUAUGGGCGUAACAUGAGGAUCACCCAUGUCCGAAUGCGAUGAGAAGGCCACAUAGUUGGCUGAUGGAGGAUAUCAAAGUAUAU` reaches 20 nM or more?
Out: met

In: Could you tell me if the measured apparent Kd of `GUUUACAAUGUCAGGAUAUCACAGCGUACAAAUGUUGAGAAGGGACAUGAGGAUCACCCAUGUACACACCUCUU` reaches 20 nM or more?
Out: not met

In: Could you tell me if the measured apparent Kd of `GGACUAUCAGGAUAUACAUGAGGAUCACCCAUGUACUUUAGGUAAUGGGACUACACCGGUAGAAGGGAUUAAAG` reaches 20 nM or more?
Out: met

In: Could you tell me if the measured apparent Kd of `GUUCCCAUAUCAGGAUAUAUUUCACAUGAGGAUCACCCAUGUUACCCGUGAAGUCGACUCUAUGUAUAGAAGGGAUGAUGGGCC` reaches 20 nM or more?
Out: met

In: Could you tell me if the measured apparent Kd of `UGAUUGAGCGGAGGAUAUCUUAAUGAGCACGUAAGAGAAGGCCGGUGGCUCCUAUAUGCAGCGCACAUGAGGAUCACCCAUGUC` reaches 20 nM or more?
Out: met

In: Could you tell me if the measured apparent Kd of `UUAGAGAGAGGAUAUACAGAGUAUCAACUCGGCGGACAAGAACAUGAGGAUCACCCAUGUAGAAGGCUCUCAGA` reaches 20 nM or more?
Out: not met

In: Could you tell me if the measured apparent Kd of `AUCGAUUUUAUAGGAUAUCGCACAUGAGGAUCACCCAUGUGCCCGACAGACUUAAAGCUCAAUCGCGAGAAGGAUAGAACAGGG` reaches 20 nM or more?
Out: not met

In: Could you tell me if the measured apparent Kd of `ACUAAUCAGCAACAUGAGGAUCACCCAUGUGGGCCGUCCGGCAGAAGGCCUACGCACUUAGACUAGGAGGAUAUGCAAGCAACU` reaches 20 nM or more?
Out: not met

In: Could you tell me if the measured apparent Kd of `CCUCACGGACUCUCCACAUGAGGAUCACCCAUGUAAGCCGCGAAGGAUAUGAACGUCUCUCCGGGUCAGAAGGUCGCCGGUCCU` reaches 20 nM or more?
Out: not met

In: Could you tell me if the measured apparent Kd of `AAACAUGAGGAUCACCCAUGUCGUCCAAUGUAGGCCUAUUGCGAGGAUAUCAUGUCCCAACUACGUGAGAAGGCGCGACUACCA` reaches 20 nM or more?
Out: not met

In: Could you tell me if the measured apparent Kd of `CACGAACAUGAGGAUCACCCAUGUCAGGAUAUCGUGCUAAUCCCAUAAUCGGCGCGCACGAGAAGGGACCAGGG` reaches 20 nM or more?
Out: not met

In: Could you tell me if the measured apparent Kd of `AGUCCCAGGGAGAAGGACAUGAUCACAUGAGGAUCACCCAUGUGAGCCAUUUUAUGUAGGGACGUGUAGGAUAUCCGGACAUGG` reaches 20 nM or more?
Out: not met

In: Could you tell me if the measured apparent Kd of `UUGGGACAUGAGGAUCACCCAUGUCAGGAUAUAUAUAAUCUGCGCGACGAGGGAUACAAUAGAAGGGACAACGG` reaches 20 nM or more?
Out: not met

* * *

System: MS2 coat protein
assaySummary: apparent Kd, MS2 coat protein; higher = weaker binding; RNA-MaP array; FMN 200 µM where present
conditionDetails: ligand present: flavin mononucleotide; designed as: ON switch for flavin mononucleotide
Would you kindly list apparent Kd for each of these sequences?
All answers are understood in nM, so give the number only.

In: Data request, read-out apparent Kd, for `CAUCAUGCGUCUAAGGAUAUGUCUCACAAGACAUGAGGAUCACCCAUGUAGAAUAAAUAAAUGAUGCAGAAGGUGGAGCGCAUGC`
Out: 57.4

In: Data request, read-out apparent Kd, for `GUAGCAAUCGGAGGAUAUUCAUACCGGAAACGGACAUGAGGAUCACCCAUGUCGCGAAAGCGUUGGGAGAAGGCCGAUUGCUAC`
Out: 21.3

In: Data request, read-out apparent Kd, for `UGCUACGUUUCGUAGCAGCUAGGUGAGGAUAUUCAAUUUUUCACAUGAGGAUCACCCAUGUAUGUGAAGAAGGCGCCUAGAAAU`
Out: 4.8

In: Data request, read-out apparent Kd, for `GACAUGAGGAUCACCCAUGUCCCUCCAGAAGGCUGGCGCGCGAAACCUAUCUCGGUUCCGCGCACAGAGGAUAUGGGCGGUUGG`
Out: 29.8

In: Data request, read-out apparent Kd, for `UGUUGUAUUACAGGAUAUCUAUUAUUUUUAUUUAGAGAAGGGUAUUCACAUGAGGAUCACCCAUGUAUAUACGAGGAAGUUGUG`
Out: 58.9

In: Data request, read-out apparent Kd, for `AUUAUAAUUGAAGGAUAUCUAUAUCCAACAUGAGGAUCACCCAUGUUGAGGAUCACCCAUGUAAAGGAGAAGGUUAAUUAUAAU`
Out: 24.6

In: Data request, read-out apparent Kd, for `UUGGACGUCGUAGGAUAUGUAGGAUAUUCCUACAUGAGGAUCACCCAUGUUGACAUGGAAGAAAGACAGAAGGACGAUGUCCAU`
Out: 8.48

In: Data request, read-out apparent Kd, for `GGGUACAUCGGAGGAUAUCAUGUAAAUACAUGAGGAUCACCCAUGUCGAUGGAGACAUCGGAGAUUGAGAAGGCCGAUGUACCA`
Out: 10.1

In: Data request, read-out apparent Kd, for `GUAGCAUACCGAGGAUAUCUAUACCGGAAACGGACAUGAGGAUCACCCAUGUGGCGAAAGCCUUGGGAGAAGGCGGAAUGCUAC`
Out: 11.6

In: Data request, read-out apparent Kd, for `UGGUACAUGGGAGGAUAUCAUGUGAGAACAUGAGGAUCACCCAUGUCGAUGGAGACAUCGGAGAUUGAGAAGGCCCAUGUACCU`
Out: 63.8

In: Data request, read-out apparent Kd, for `UGUUAAUAAGAGAAGGAGGACUUCAUGAGGAUCACCCAUGUGUUAGUACUUAGGAUAUUUAAUAACAUGAGGAUCACCCAUGUC`
Out: 40.4

In: Data request, read-out apparent Kd, for `CCAUAGUACAAUUUAGAUCUACAUGAGGAUCACCCAUGUACUGAGGAUAUCAGCUCGAAUAGAGCUGAGAAGGCAGAAUUAAUU`
Out: 59.2

In: Data request, read-out apparent Kd, for `GGCGGGCGAAACAUGAGGAUCACCCAUGUGUUAUACUUAAUAUAGGAUAUGUUUAUACUUUUUGGGCAGAAGGAUGCGCCUGCC`
Out: 33.4

In: Data request, read-out apparent Kd, for `UGUUGUAUUACAGGAUAUCUAUUGUUUUUAUAUAGAGAAGGGUAUUCACAUGAGGAUCACCCAUGUAUAUACGAGGAAGUUGUG`
Out: 45.8
